B1: CDS2 (parent)
chain: LIVVTQSHLVIHNLFEGMIWFIVP

Variants of: B1
assay: protein stability index of a GFP-peptide fusion (GPS, HEK-293T) (PSI 1-6); higher = more stable;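 note: lentivirally expressed fusions sorted by FACS into six bins by GFP to DsRed ratio, PSI derived from sequencing read proportions per bin multiplied by bin number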
experimental_setup: c terminus: a fixed tail appended
metric_name: protein stability index
Would you mind answering with just the numeric figure?

The examples below pair each entry with its known result.
{"columns": ["mutation_list", "protein stability index"],
 "data": [
  ["V3I", 3.46],
  ["L1M", 3.16],
  ["H12A", 3.32],
  ["I19F", 2.89]
]}

Return reported protein stability index; argument: V10T
2.15

Endpoint output: protein stability index of I2D . Value?
1.02
